For each entry below, report its Activity value.
System: Mus musculus
measurement description: Toxicity in Mus musculus albino (mouse) assessed as resting time at 100 mg/kg, ip
Assay type: organism-based
Design: dose 100 mg/kg, route intraperitoneal
experimental conditions: in vivo
Hi! Could you send only the number? It should be in %, unit omitted.

Req: Specify Activity for O=C(CSC(=S)N1CCSCC1)N1N=C(c2cccs2)CC1c1ccccc1 (stereo not given) and stop.
Resp: 73

Req: Specify Activity for O=C(CSC(=S)N1CCOCC1)N1N=C(c2cccs2)CC1c1ccc(Cl)cc1 (stereo not given) and stop.
Resp: 80

Req: Specify Activity for Cc1ccc(C2CC(c3cccs3)=NN2C(=O)CSC(=S)N2CCOCC2)cc1 (stereo not given) and stop.
Resp: 89

Req: Specify Activity for O=C(CSC(=S)N1CCSCC1)N1N=C(c2cccs2)CC1c1ccc(Cl)cc1 (stereo not given) and stop.
Resp: 80

Req: Specify Activity for O=C(CSC(=S)N1CCOCC1)N1N=C(c2cccs2)CC1c1ccccc1 (stereo not given) and stop.
Resp: 77

* * *

Test system: Mus musculus
measurement description: Toxicity in Mus musculus albino (mouse) assessed as resting time at 100 mg/kg, ip
Type: organism-based
Design: dose 100 mg/kg, route intraperitoneal
experimental conditions: in vivo
experimental endpoint: Activity (%)
Hi! Could you send only the number? It should be in %, unit omitted.

Req: Specify Activity for COc1ccc(C2CC(c3cccs3)=NN2C(=O)CSC(=S)N2CCOCC2)cc1 (stereo not drawn) and stop.
Resp: 84

Req: Specify Activity for COc1ccc(C2CC(c3cccs3)=NN2C(=O)CSC(=S)N2CCSCC2)cc1 (stereo not drawn) and stop.
Resp: 72

Req: Specify Activity for Cc1ccc(C2CC(c3cccs3)=NN2C(=O)CSC(=S)N2CCSCC2)cc1 (stereo not drawn) and stop.
Resp: 81

meta.source: ChEMBL document CHEMBL3046136
